Values compiled from paper PMC3914206.

Molecular target: panel of 442 kinases (Homo sapiens, UniProt P57059)
Construct: purchased KINOMEscan
Sequence (P57059 whole entry): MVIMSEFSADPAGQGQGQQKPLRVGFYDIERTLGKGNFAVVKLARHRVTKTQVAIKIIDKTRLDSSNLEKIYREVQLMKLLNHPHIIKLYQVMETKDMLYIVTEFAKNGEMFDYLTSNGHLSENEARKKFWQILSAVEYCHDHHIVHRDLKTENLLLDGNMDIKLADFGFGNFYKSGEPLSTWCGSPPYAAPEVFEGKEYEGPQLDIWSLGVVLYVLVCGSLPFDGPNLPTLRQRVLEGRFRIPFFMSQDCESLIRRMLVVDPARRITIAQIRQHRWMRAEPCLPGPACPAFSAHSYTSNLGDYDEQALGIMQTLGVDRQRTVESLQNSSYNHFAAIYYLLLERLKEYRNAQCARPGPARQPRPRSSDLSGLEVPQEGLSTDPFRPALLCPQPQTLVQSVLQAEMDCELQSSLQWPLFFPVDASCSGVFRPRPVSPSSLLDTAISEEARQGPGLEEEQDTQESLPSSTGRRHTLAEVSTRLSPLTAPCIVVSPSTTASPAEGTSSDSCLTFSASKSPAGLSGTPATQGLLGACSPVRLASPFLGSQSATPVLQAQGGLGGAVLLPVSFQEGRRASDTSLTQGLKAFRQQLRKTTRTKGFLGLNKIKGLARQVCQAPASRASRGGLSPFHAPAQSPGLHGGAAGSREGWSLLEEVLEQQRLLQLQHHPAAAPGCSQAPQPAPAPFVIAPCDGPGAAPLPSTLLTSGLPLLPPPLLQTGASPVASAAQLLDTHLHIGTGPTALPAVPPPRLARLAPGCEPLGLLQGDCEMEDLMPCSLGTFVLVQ
Format: binding
Details: kinase SIK; compound concentration 10 µM
quantity.kind: % Ctrl, SIK
Please answer using a numeric value trailed by its unit.

# example entries with known answers
In [3]: df
Out[3]:
                                   compound  value_observed
0  COc1cc(C(=O)N2CCC(N3CCN(C)CC3)CC2)ccc1Nc1ncc2c(n1)N(C1CCCC1)c1ccccc1C(=O)N2C [Compound 25]       98 % Ctrl
1  COc1cc(C(=O)N2CCC(N3CCN(C)CC3)CC2)ccc1Nc1ncc2c(n1)N(C)c1ccccc1C(=O)N2C [15 (LRRK2-IN-1)]       77 % Ctrl
2  CCOc1cc(C(=O)N2CCC(N3CCN(C)CC3)CC2)ccc1Nc1ncc2c(n1)N(C1CCCC1)c1ccccc1C(=O)N2C [Compound 26]      100 % Ctrl

Alright, here's another compound for you.
Task: I'd like to know its % Ctrl, SIK. The compound in question is COc1cc(C(=O)N2CCC(N3CCN(C)CC3)CC2)ccc1Nc1ncc2c(n1)N1CCc3cccc(c31)C(=O)N2C [Compound 24]
Output: 90 % Ctrl
